# viability, T/C annotations
# Test system: 565232-114-T-J1-PDC complex spheroid viability;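 further: spheroids exposed to compounds for 7 days before readout; 100% = DMSO vehicle wells with luminescence normalized to vehicle control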
# protocol_details: Anticancer human tumor 565232-114-T-J1-PDC patient-derived bladder carcinoma cell line growth inhibition [CLK]
# details: second compound 10 µM; first compound 0.1 µM; hits give low values
// note: answer is a bare numeric in %

# compound, target_or_system, data_value
rows = [
    ("CCCS(=O)(=O)Nc1ccc(F)c(C(=O)c2c[nH]c3ncc(-c4ccc(Cl)cc4)cc23)c1F + CNC(=O)c1ccc(Nc2nc(OC3CCCC3)c3c(-c4ccc5nc(C)oc5c4)c[nH]c3n2)c(OC)c1", "565232-114-T-J1-PDC complex spheroid viability", 17.8),
    ("CCc1c2c(nc3ccc(O)cc13)-c1cc3c(c(=O)n1C2)COC(=O)[C@]3(O)CC + CN1CCN(c2cc(C(=O)Nc3cc4cc(-c5cnn(C)c5)ccc4cn3)ccn2)CC1", "565232-114-T-J1-PDC complex spheroid viability", 0.17),
    ("O=c1[nH]cc(F)c(=O)[nH]1 + CNC(=O)c1ccc(Nc2nc(OC3CCCC3)c3c(-c4ccc5nc(C)oc5c4)c[nH]c3n2)c(OC)c1", "565232-114-T-J1-PDC complex spheroid viability", 16.1),
    ("CC(CO)NC(=O)c1cc(-c2ccc(Cl)cc2)nn(-c2cnn(C)c2)c1=O (stereo not given) + CNC(=O)c1ccc(Nc2nc(OC3CCCC3)c3c(-c4ccc5nc(C)oc5c4)c[nH]c3n2)c(OC)c1", "565232-114-T-J1-PDC complex spheroid viability", 18.1),
]

Now let's try a different one.
# viability, T/C (compound: COc1ccc([C@@H](O)c2cc(-c3ncnc4cc(N5CCOCC5)ccc34)c(F)cc2Cl)nn1 + CN1CCN(c2cc(C(=O)Nc3cc4cc(-c5cnn(C)c5)ccc4cn3)ccn2)CC1 ) is 0.16
